test: in vivo; set-up: species or system mice; details: male, NOD.Cg-Rag1tm1Mom Il2rgtm1Wjl/SzJ (NRG), mouse, iv, total radioactivity, Ratio Tumor-to-Kidney
Where a SMILES comes first, the peptide text is derived from it. Bridges are numbered along the chain shown (N, C = ends). [ ]: non-standard residue; d: D form. The star is where a group is joined. X1 = O=C(O)CN1CCN(CC(=O)O)CCN(CC(=O)N[C@@H](CS(=O)(=O)O)C(=O)N[C@@H](CCCCNC(=O)CCCc2ccc(I)cc2)C(=O)*)CCN(CC(=O)O)CC1; 2Nal = N[C@@H](Cc1ccc2ccccc2c1)C(=O)O; Lys(iPr) = CC(C)NCCCC[C@H](N)C(=O)O
measurement_name: tissue to tissue ratio at 1 h
No unit in the answer, only the number.

Problem: Consider the molecule CC(C)NCCCC[C@H](NC(=O)[C@H]1CCC(=O)N[C@@H](CCCCNC(=O)[C@H](CCCCNC(=O)CCCc2ccc(I)cc2)NC(=O)[C@H](CS(=O)(=O)O)NC(=O)CN2CCN(CC(=O)O)CCN(CC(=O)O)CCN(CC(=O)O)CC2)C(=O)N[C@@H](Cc2ccc(O)cc2)C(=O)N[C@@H](CCCCNC(C)C)C(=O)N[C@H](CCCNC(=N)N)C(=O)N[C@@H](Cc2ccc3ccccc3c2)C(=O)N[C@H](C)C(=O)N1)C(N)=O [[^68Ga]Ga-BL34L11, metal not drawn] (K(X1)Y[Lys(iPr)][dR][2Nal][dA][dE][Lys(iPr)]-NH2; lactam N-7) . State its measured tissue to tissue ratio at 1 h.
Solution: 1.27
